// provenance: ChEMBL document CHEMBL1132635

ASSAYED SYSTEM: Adenosine receptor A3 (Homo sapiens, UniProt P0DMS8)
Sequence (P0DMS8 whole entry): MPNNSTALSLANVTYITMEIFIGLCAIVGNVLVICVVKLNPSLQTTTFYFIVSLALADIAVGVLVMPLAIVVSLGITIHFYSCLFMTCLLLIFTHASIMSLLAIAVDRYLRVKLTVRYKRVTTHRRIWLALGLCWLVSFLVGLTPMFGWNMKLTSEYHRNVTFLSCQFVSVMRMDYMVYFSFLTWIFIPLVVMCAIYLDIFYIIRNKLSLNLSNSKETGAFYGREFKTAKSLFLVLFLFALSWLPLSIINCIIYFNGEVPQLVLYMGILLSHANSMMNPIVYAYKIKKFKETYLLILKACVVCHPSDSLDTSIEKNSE
TEST DESCRIPTION: Binding affinity at human Adenosine A3 receptor expressed in HEK 293 cells by [125I]AB-MECA displacement.
Format: cell-based, HEK293
Attribute: pKi
Scale: negative log10 of molar concentration, which is what pKi denotes.

Past entries and their recorded results:
| STRUCTURE AS SMILES | ASSAYED SYSTEM | QUANTITATIVE READOUT |
| --- | --- | --- |
| CC(C)SC[C@H]1O[C@@H](n2cnc3c(NCc4ccccc4)ncnc32)[C@H](O)[C@@H]1O | Adenosine receptor A3 (Homo sapiens, UniProt P0DMS8) | 6.68 |
| CSC[C@H]1O[C@@H](n2cnc3c(NCc4ccccc4)ncnc32)[C@H](O)[C@@H]1O | Adenosine receptor A3 (Homo sapiens, UniProt P0DMS8) | 6.89 |
| CCCSC[C@H]1O[C@@H](n2cnc3c(NCc4ccccc4)ncnc32)[C@H](O)[C@@H]1O | Adenosine receptor A3 (Homo sapiens, UniProt P0DMS8) | 6.19 |
| CSC[C@H]1O[C@@H](n2cnc3c(NCc4cccc(I)c4)ncnc32)[C@H](O)[C@@H]1O | Adenosine receptor A3 (Homo sapiens, UniProt P0DMS8) | 8.06 |

// query pKi value for entry CCCSC[C@H]1O[C@@H](n2cnc3c(NCc4cccc(I)c4)ncnc32)[C@H](O)[C@@H]1O
7.35

---

Here, each record is paired with measured Ratio data.
ASSAYED SYSTEM: Adenosine receptors; A1 & A3 (Rattus norvegicus) (UniProt P25099+P28647)
TEST DESCRIPTION: Ratio of displacement of A1 receptor to A3 receptor
Assay type: protein assay

# annotated cases, reported Ratio shown
| STRUCTURE AS SMILES | PROPERTY | RESULT |
| --- | --- | --- |
| CC(C)SC[C@H]1O[C@@H](n2cnc3c(NCc4cccc(I)c4)ncnc32)[C@H](O)[C@@H]1O | Ratio | > 216 |
| CSC[C@H]1O[C@@H](n2cnc3c(NCc4ccccc4)ncnc32)[C@H](O)[C@@H]1O | Ratio | > 78.1 |
| CCCSC[C@H]1O[C@@H](n2cnc3c(NCc4cccc(I)c4)ncnc32)[C@H](O)[C@@H]1O | Ratio | > 226 |
| CCSC[C@H]1O[C@@H](n2cnc3c(NCc4ccccc4)ncnc32)[C@H](O)[C@@H]1O | Ratio | > 62.9 |
| O[C@@H]1[C@H](O)[C@@H](CCl)O[C@H]1n1cnc2c(NCc3ccccc3)ncnc21 | Ratio | > 5.4 |

Kindly consider the entry below.
// query Ratio value for entry CC(C)SC[C@H]1O[C@@H](n2cnc3c(NCc4ccccc4)ncnc32)[C@H](O)[C@@H]1O
> 47.4
